# target-or-test-system: PGD2 receptor (Homo sapiens, UniProt Q13258)
# Construct: The platelets mere homogenized using a homogenizer (Ultra-Turrax) followed by centrifugation 3 times at 20,000 rpm, 10 min at 4° C. to obtain a platelet membrane fraction
# Sequence (Q13258 1-359): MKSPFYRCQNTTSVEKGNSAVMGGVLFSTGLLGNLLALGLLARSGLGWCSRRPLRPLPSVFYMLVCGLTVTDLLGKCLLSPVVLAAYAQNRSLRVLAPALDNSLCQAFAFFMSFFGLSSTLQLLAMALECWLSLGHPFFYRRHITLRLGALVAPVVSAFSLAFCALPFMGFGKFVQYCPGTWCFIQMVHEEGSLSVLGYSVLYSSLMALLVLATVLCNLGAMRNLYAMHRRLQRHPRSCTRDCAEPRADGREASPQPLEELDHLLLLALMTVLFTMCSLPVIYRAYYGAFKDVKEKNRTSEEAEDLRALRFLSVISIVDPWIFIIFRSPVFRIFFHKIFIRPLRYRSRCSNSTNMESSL
# assay-notes: Binding to PGD2 receptor ([3H]PGD2, human platelet membrane fraction)
# run-parameters: 5 nM [3H]PGD2, 4° C., 90 min, read-out: IC50 (concentration required for 50% inhibition of [3H]PGD2 binding)
Kindly apply the following: Criterion met if IC50 is less than 1 nM, Criterion not met in every other case.

CC1(C)[C@H]2C[C@H](C/C=C/CCCC(=O)O)[C@@H](NC(=O)c3csc4ccc(O)cc34)[C@@H]1C2 [IA-a-17]	Criterion not met
CC1(C)[C@H]2C[C@H](C/C=C\CCCC(=O)O)[C@@H](NC(=O)c3csc4ccc(F)cc34)[C@@H]1C2 [IA-a-11]	Criterion met
CC1(C)[C@H]2C[C@@H](C/C=C\CCCC(=O)O)[C@@H](NC(=O)c3csc4ccc(O)cc34)[C@@H]1C2 [IA-c-1]	Criterion not met
CC1(C)[C@H]2C[C@H](C/C=C/CCCC(=O)O)[C@@H](NC(=O)c3csc4ccc(O)cc34)[C@@H]1C2 (single isomer, unassigned) [IA-a-18]	Criterion not met
CC1(C)[C@H]2C[C@H](NC(=O)c3csc4ccc(F)cc34)[C@@H](C/C=C\CCCC(=O)O)[C@@H]1C2 [IB-a′-2]	Criterion not met

The measured values listed here are drawn from patent US6506789B2.
